The reported numbers originate from patent US20110110886A1.

STUDY SYSTEM: ATX (recombinant full-length human ATX), PDE activity (Homo sapiens, UniProt Q13822)
Construct: consistent with a mature, glycosylated form of the enzyme; TEV cleavage site (C); 9-His (C); 6-His (C); made in house; host or cells: High Five insect cells (baculovirus, p-DEST-8)
ASSAY COMMENT: Steady-state ATX phosphodiesterase (PDE) activity with pNP-TMP, absorbance 405 nm
Format: biochemical
EXPERIMENTAL SETUP: substrate pNP-TMP, 25° C., competitive inhibition equation (Eq. 3); read-out: KI, ATX PDE activity
READOUT NAME: pKi
Just the number, please; pKi means minus log10 of the concentration in mol/L.

Look up pKi of `O=[As](O)(O)c1ccc(Cc2ccc([As](=O)(O)O)cc2)cc1` and report it.
7.32

* * *

STUDY SYSTEM: ATX (recombinant full-length human ATX), lysoPLD activity (Homo sapiens, UniProt Q13822)
Construct: consistent with a mature, glycosylated form of the enzyme; TEV cleavage site (C); 9-His (C); 6-His (C)
ASSAY COMMENT: Steady-state ATX lysoPLD activity with fluorescent LPC analogue FS-3
EXPERIMENTAL SETUP: substrate FS-3, 37° C.
READOUT NAME: Ki (µM)
Number in µM, nothing else.

Some compounds with recorded Ki:
Supply Ki measured with ATX (recombinant full-length human ATX), lysoPLD activity (Homo sapiens, UniProt Q13822) for O=[As](O)(O)c1ccc(Cc2ccc([As](=O)(O)O)cc2)cc1 [NSC 48300] .
0.24

Supply Ki measured with ATX (recombinant full-length human ATX), lysoPLD activity (Homo sapiens, UniProt Q13822) for Oc1c(Cl)cc(Cl)c(Cl)c1Cc1c(O)c(Cl)cc(Cl)c1Cl [Hexachlorophene] .
68

Supply Ki measured with ATX (recombinant full-length human ATX), lysoPLD activity (Homo sapiens, UniProt Q13822) for O=C1OC2(c3ccccc31)c1cc(Br)c(O)c(Br)c1Oc1c2cc(Br)c(O)c1Br [Eosin Y] .
116

Moving on to another compound below.
Supply Ki measured with ATX (recombinant full-length human ATX), lysoPLD activity (Homo sapiens, UniProt Q13822) for Oc1c(Cl)cc(Cl)cc1Sc1cc(Cl)cc(Cl)c1O [Bithionol] .
66

* * *

STUDY SYSTEM: ATX (recombinant full-length human ATX), PDE activity (Homo sapiens)
Construct: consistent with a mature, glycosylated form of the enzyme; TEV cleavage site (C); 9-His (C); 6-His (C); made in house; host or cells: High Five insect cells (baculovirus, p-DEST-8)
ASSAY COMMENT: Steady-state ATX phosphodiesterase (PDE) activity with pNP-TMP, absorbance 405 nm
Type: biochemical
EXPERIMENTAL SETUP: substrate pNP-TMP, 25° C.; read-out: KI (dissociation equilibrium constant for inhibitor binding), ATX PDE activity
READOUT NAME: log10 of Ki (log10 of the value in µM)
Kindly note that the scale is log10 and the underlying Ki is in µM.

Look up log10 of Ki of O=C1OC2(c3ccccc31)c1cc(Br)c(O)c(Br)c1Oc1c2cc(Br)c(O)c1Br [Eosin Y] and report it.
0.98

New cases:
Look up log10 of Ki of Oc1ccc(Cl)cc1Cc1cc(Cl)ccc1O [2,2′-Methylenebis(4-chlorophenol)] and report it.
2.02

Look up log10 of Ki of O=C([O-])c1ccccc1-c1c2cc(Br)c(=O)cc-2oc2[c]([Hg+])c([O-])c(Br)cc12.[Na+].[Na+].[OH-] [Merbromin] and report it.
1.63

Look up log10 of Ki of Oc1c(Cl)cc(Cl)cc1Sc1cc(Cl)cc(Cl)c1O [Bithionol] and report it.
1.78

Look up log10 of Ki of Oc1c(Cl)cc(Cl)c(Cl)c1Cc1c(O)c(Cl)cc(Cl)c1Cl [Hexachlorophene] and report it.
1.18

* * *

STUDY SYSTEM: ATX (recombinant full-length human ATX), lysoPLD activity (Homo sapiens, UniProt Q13822)
Construct: consistent with a mature, glycosylated form of the enzyme; TEV cleavage site (C); 9-His (C); 6-His (C); made in house; host or cells: High Five insect cells (baculovirus, p-DEST-8)
ASSAY COMMENT: Steady-state ATX lysoPLD activity with fluorescent LPC analogue FS-3
Type: biochemical
EXPERIMENTAL SETUP: substrate FS-3
READOUT NAME: type of inhibition of ATX lysoPLD activity

Look up type of inhibition of ATX lysoPLD activity of Oc1c(Cl)cc(Cl)cc1Sc1cc(Cl)cc(Cl)c1O [Bithionol] and report it.
competitively inhibits

Look up type of inhibition of ATX lysoPLD activity of O=[As](O)(O)c1ccc(Cc2ccc([As](=O)(O)O)cc2)cc1 [NSC 48300] and report it.
competitively inhibits

* * *

STUDY SYSTEM: ATX (recombinant full-length human ATX), PDE activity (Homo sapiens, UniProt Q13822)
Construct: consistent with a mature, glycosylated form of the enzyme; TEV cleavage site (C); 9-His (C); 6-His (C); made in house; host or cells: High Five insect cells (baculovirus, p-DEST-8)
ASSAY COMMENT: Steady-state ATX phosphodiesterase (PDE) activity with pNP-TMP, absorbance 405 nm
Format: biochemical
EXPERIMENTAL SETUP: substrate pNP-TMP
READOUT NAME: type of inhibition of ATX PDE activity

Look up type of inhibition of ATX PDE activity of O=[As](O)(O)c1ccc(Cc2ccc([As](=O)(O)O)cc2)cc1 [NSC 48300] and report it.
competitive inhibition

Look up type of inhibition of ATX PDE activity of Oc1c(Cl)cc(Cl)c(Cl)c1Cc1c(O)c(Cl)cc(Cl)c1Cl [Hexachlorophene] and report it.
competitive inhibition
